Assay: Cytotoxicity against mouse RAW264.7 cells assessed as cell viability at 5 uM after 24 hrs by MTT assay relative to control
Type: cell-based
Details: read-out: Activity
Listed molecules paired with reported viability at 24 h, 5 µM
parameter.measured: viability at 24 h, 5 µM (%)

{"columns": ["smiles.repr", "parameter.measured", "quantitative.result"],
 "data": [
  ["N#Cc1cccc(-n2c(=O)oc3ccc(-c4ccc(F)cc4F)cc3c2=O)c1", "viability at 24 h, 5 µM", 103],
  ["COc1ccc(-n2c(=O)oc3ccc(-c4ccc(F)cc4F)cc3c2=O)cc1OC", "viability at 24 h, 5 µM", 103],
  ["O=c1oc2ccc(-c3ccc(F)cc3F)cc2c(=O)n1-c1cccc(C(F)(F)F)c1", "viability at 24 h, 5 µM", 100],
  ["N#Cc1ccc(-n2c(=O)oc3ccc(-c4ccc(F)cc4F)cc3c2=O)cc1", "viability at 24 h, 5 µM", 108],
  ["O=c1oc2ccc(-c3ccc(F)cc3F)cc2c(=O)n1-c1ccccc1C(F)(F)F", "viability at 24 h, 5 µM", 95.5],
  ["O=c1oc2ccc(-c3ccc(F)cc3F)cc2c(=O)n1-c1ccc(Cl)cc1F", "viability at 24 h, 5 µM", 96.2],
  ["O=c1oc2ccc(-c3ccc(F)cc3F)cc2c(=O)n1-c1ccc(F)c(F)c1", "viability at 24 h, 5 µM", 72.2],
  ["O=c1oc2ccc(-c3ccc(F)cc3F)cc2c(=O)n1-c1ccc(C(F)(F)F)cc1", "viability at 24 h, 5 µM", 103],
  ["C#Cc1cccc(-n2c(=O)oc3ccc(-c4ccc(F)cc4F)cc3c2=O)c1", "viability at 24 h, 5 µM", 88.4],
  ["COc1cccc(-n2c(=O)oc3ccc(-c4ccc(F)cc4F)cc3c2=O)c1", "viability at 24 h, 5 µM", 106],
  ["O=c1oc2ccc(-c3ccc(F)cc3F)cc2c(=O)n1-c1cc(F)ccc1F", "viability at 24 h, 5 µM", 86.6],
  ["O=c1oc2ccc(-c3ccc(F)cc3F)cc2c(=O)n1-c1ccc(F)cc1F", "viability at 24 h, 5 µM", 96.5]
]}

Data origin: ChEMBL document CHEMBL3596168
